// provenance: the Immune Epitope Database (IEDB)

- measured-on: HLA-A*02:01
- measurement-notes: IEDB peptide-MHC binding, purified MHC/competitive/fluorescence; bounds were set here for any values at or beyond the usual limits of such assays
- condition-notes: source organism: Vaccinia virus WR
property: pIC50
Please note pIC50 is a logarithmic value: minus log10 of concentration in mol/L. Answer with that number alone.

>  <polymer-sequence>
RLPKRSVML

>  <property>
pIC50

>  <numeric-readout>
5.58

$$$$

Q: State the recorded pIC50 for this entry: ILNTIQFMH
A: 5.29

* * *

- measured-on: HLA-B*40:01
- measurement-notes: IEDB peptide-MHC binding, purified MHC/direct/fluorescence; filed as Kd, often an IC50 or EC50 that approximates it; bounds were set here for any values at or beyond the usual limits of such assays
- condition-notes: source organism: West Nile virus strain PTRoxo
property: Kd

Q: State the recorded Kd for this entry: MTRGLLGSY
A: ≥ 20 µM

* * *

- measured-on: HLA-A*02:16
- measurement-notes: IEDB peptide-MHC binding, purified MHC/competitive/fluorescence; filed as Kd, often an IC50 or EC50 that approximates it; bounds were set here for any values at or beyond the usual limits of such assays
- condition-notes: source organism: Homo sapiens
property: Kd

Q: State the recorded Kd for this entry: FWAWSVLRV
A: ≥ 20 µM

* * *

pKd by entry:
- measured-on: HLA-A*24:02
- measurement-notes: IEDB peptide-MHC binding, purified MHC/competitive/radioactivity; filed as Kd, often an IC50 or EC50 that approximates it; bounds were set here for any values at or beyond the usual limits of such assays
- condition-notes: source organism: SARS coronavirus Tor2
pKd: −log10 of the molar value.

>  <polymer-sequence>
FYLCFLAFLL

>  <pKd>
7.87

$$$$
>  <polymer-sequence>
TVDSSQGSEY

>  <pKd>
≤ 4.15

$$$$
>  <polymer-sequence>
ESASKSASVY

>  <pKd>
≤ 4.15

$$$$
>  <polymer-sequence>
VTYNCCDDDY

>  <pKd>
≤ 4.15

$$$$
>  <polymer-sequence>
KFADDLNQM

>  <pKd>
5.82

$$$$

Q: What is its pKd for HLA-A*24:02? Entry: KIEELFYSY
A: ≤ 4.68

Q: // repeat for KWDLIISDMY and report
A: ≤ 4.40

Q: // repeat for DPAKAYKDY and report
A: ≤ 4.11

Q: // repeat for ELADTSLSGY and report
A: ≤ 4.15

Q: // repeat for IFFASFYYI and report
A: 7.91

Q: // repeat for VWLGFIAGL and report
A: ≤ 4.33

Q: // repeat for NSKVQIGEY and report
A: ≤ 4.46

* * *

- measured-on: HLA-C*14:02
- measurement-notes: IEDB peptide-MHC binding, purified MHC/direct/fluorescence; filed as Kd, often an IC50 or EC50 that approximates it; bounds were set here for any values at or beyond the usual limits of such assays
- condition-notes: source organism: Vibrio vulnificus YJ016
property: Kd (nM)
Give just the numeric value; nM need not be written.

Q: State the recorded Kd for this entry: YLRKHIRAL
A: 99

* * *

- measured-on: HLA-A*69:01
- measurement-notes: IEDB peptide-MHC binding, purified MHC/direct/fluorescence; filed as Kd, often an IC50 or EC50 that approximates it; bounds were set here for any values at or beyond the usual limits of such assays
- condition-notes: source organism: Camelpox virus M-96
property: Kd

Q: State the recorded Kd for this entry: ALYSYASAK
A: ≥ 20 µM

* * *

- measured-on: HLA-B*57:01
- measurement-notes: IEDB peptide-MHC binding, purified MHC/competitive/fluorescence; filed as Kd, often an IC50 or EC50 that approximates it; bounds were set here for any values at or beyond the usual limits of such assays
- condition-notes: source organism: Human immunodeficiency virus 1
property: Kd (µM)
Give just the numeric value; µM need not be written.

Q: State the recorded Kd for this entry: KSLYNTIATLY
A: 0.652

* * *

- measured-on: HLA-A*26:01
- measurement-notes: IEDB peptide-MHC binding, purified MHC/competitive/radioactivity; filed as Kd, often an IC50 or EC50 that approximates it; bounds were set here for any values at or beyond the usual limits of such assays
- condition-notes: source organism: Lymphocytic choriomeningitis virus (strain Armstrong)
property: Kd (µM)
Give just the numeric value; µM need not be written.

Q: State the recorded Kd for this entry: ESFVRKQKY
A: 4.02

* * *

- measured-on: HLA-B*48:01
- measurement-notes: IEDB peptide-MHC binding, purified MHC/direct/fluorescence; filed as Kd, often an IC50 or EC50 that approximates it; bounds were set here for any values at or beyond the usual limits of such assays
- condition-notes: source organism: Mycobacterium tuberculosis
pKd: −log10 of the molar value.
property: pKd

>  <polymer-sequence>
RPAGARAAF

>  <pKd>
≤ 4.70

$$$$

Now look at this entry.
Q: What is its pKd for HLA-B*48:01? Entry: RPRLHSISF
A: ≤ 4.70

* * *

- measured-on: HLA-A*02:01
- measurement-notes: IEDB peptide-MHC binding, purified MHC/competitive/fluorescence; filed as Kd, often an IC50 or EC50 that approximates it; bounds were set here for any values at or beyond the usual limits of such assays
- condition-notes: source organism: Influenza A virus (A/Hong Kong/532/1997(H5N1))
property: Kd (nM)
Give just the numeric value; nM need not be written.

Q: State the recorded Kd for this entry: YLMAWKQVL
A: 0.4

* * *

- measured-on: HLA-B*57:01
- measurement-notes: IEDB peptide-MHC binding, purified MHC/competitive/fluorescence; filed as Kd, often an IC50 or EC50 that approximates it; bounds were set here for any values at or beyond the usual limits of such assays
- condition-notes: source organism: Salmonella enterica subsp. enterica serovar Typhi str. CT18
property: Kd (nM)
Give just the numeric value; nM need not be written.

Q: State the recorded Kd for this entry: KSKPRIHGY
A: 169

* * *

- measured-on: HLA-B*18:01
- measurement-notes: IEDB peptide-MHC binding, purified MHC/direct/fluorescence; filed as Kd, often an IC50 or EC50 that approximates it; bounds were set here for any values at or beyond the usual limits of such assays
- condition-notes: source organism: Influenza A virus (A/Wisconsin/4755/1994(H1N1))
property: Kd

Q: What is its Kd for HLA-B*18:01? Entry: DPKKTGGPI
A: ≥ 20 µM

* * *

- measured-on: HLA-A*11:01
- measurement-notes: IEDB peptide-MHC binding, purified MHC/direct/fluorescence; filed as Kd, often an IC50 or EC50 that approximates it; bounds were set here for any values at or beyond the usual limits of such assays
- condition-notes: source organism: Corynebacterium glutamicum
pKd: −log10 of the molar value.
property: pKd

Q: State the recorded pKd for this entry: FAAAAARTL
A: ≤ 4.70

* * *

- measured-on: HLA-A*01:01
- measurement-notes: IEDB peptide-MHC binding, purified MHC/competitive/fluorescence; filed as Kd, often an IC50 or EC50 that approximates it; bounds were set here for any values at or beyond the usual limits of such assays
- condition-notes: source organism: Influenza A virus (A/Harbin/1/1988(H1N2))
property: pKd
Please note pKd is a logarithmic value: minus log10 of concentration in mol/L. Answer with that number alone.

Q: State the recorded pKd for this entry: YVSVVSSHY
A: 6.26

* * *

- measured-on: HLA-B*15:17
- measurement-notes: IEDB peptide-MHC binding, purified MHC/direct/fluorescence; filed as Kd, often an IC50 or EC50 that approximates it; bounds were set here for any values at or beyond the usual limits of such assays
- condition-notes: source organism: Yersinia pestis
property: Kd (nM)
Give just the numeric value; nM need not be written.

Q: State the recorded Kd for this entry: MAMPEYWQF
A: 8.8

* * *

- measured-on: HLA-A*32:01
- measurement-notes: IEDB peptide-MHC binding, purified MHC/competitive/radioactivity; filed as Kd, often an IC50 or EC50 that approximates it; bounds were set here for any values at or beyond the usual limits of such assays
- condition-notes: source organism: Vaccinia virus Copenhagen
property: Kd (µM)
Give just the numeric value; µM need not be written.

>  <polymer-sequence>
MIFFNPVSF

>  <measured-on>
HLA-A*32:01

>  <Kd, µM>
0.000462

$$$$
>  <polymer-sequence>
LLFFLALSI

>  <measured-on>
HLA-A*32:01

>  <Kd, µM>
0.5

$$$$

Now look at this entry.
Q: State the recorded Kd for this entry: LTIFSTIIF
A: 0.264

* * *

- measured-on: HLA-B*18:01
- measurement-notes: IEDB peptide-MHC binding, purified MHC/direct/fluorescence; filed as Kd, often an IC50 or EC50 that approximates it; bounds were set here for any values at or beyond the usual limits of such assays
- condition-notes: source organism: Orthohantavirus andesense
pKd: −log10 of the molar value.
property: pKd

Q: State the recorded pKd for this entry: AYDHGNVIL
A: ≤ 4.70

* * *

- measured-on: HLA-A*03:01
- measurement-notes: IEDB peptide-MHC binding, purified MHC/competitive/fluorescence; filed as Kd, often an IC50 or EC50 that approximates it; bounds were set here for any values at or beyond the usual limits of such assays
- condition-notes: source organism: Coxiella burnetii RSA 331
property: Kd (nM)
Give just the numeric value; nM need not be written.

Q: State the recorded Kd for this entry: TLYDRYLIH
A: 6.9
